Cited source for all entries: ChEMBL document CHEMBL4196119

# target desc: Hepatitis C virus serine protease, NS3/NS4A (Hepatitis C virus, UniProt A3EZI9+D2K2A8, R155K)
# assay method text: Inhibition of HCV genotype 1a NS3/4A protease R155K mutant expressed in Escherichia coli BL21(DE3) using Ac-DE-Dap(QXL 520)-EE-Abu-psi-[COO]AS-C(5-FAMsp)-NH2 as substrate preincubated for 1 hr followed by substrate addition
For each of the molecules below, state its pKi.
Answers are plain numbers, as −log10 of the molar value.

INSERT INTO assay_data (smiles_structure, recorded_result) VALUES
  ('C=C[C@@H]1C[C@]1(NC(=O)[C@@H]1C[C@@H](Oc2nc3cc(OC)ccc3nc2C(F)(F)F)CN1C(=O)[C@@H](NC(=O)OC1CCCC1)C(C)(C)C)C(=O)NS(=O)(=O)C1CC1', 7.59);

Each molecule below has a recorded value; state its pKi.
1. C=C[C@@H]1C[C@]1(NC(=O)[C@@H]1C[C@@H](Oc2nc3cc(OC)ccc3nc2C)CN1C(=O)[C@@H](NC(=O)OC1CCCC1)C(C)(C)C)C(=O)NS(=O)(=O)C1(C)CC1
2. C=C[C@@H]1C[C@]1(NC(=O)[C@@H]1C[C@@H](Oc2nc3cc(OC)ccc3nc2Cl)CN1C(=O)[C@@H](NC(=O)OC1CCCC1)C(C)(C)C)C(=O)NS(=O)(=O)C1(C)CC1
3. C=C[C@@H]1C[C@]1(NC(=O)[C@@H]1C[C@@H](Oc2nc3cc(OC)ccc3nc2C)CN1C(=O)[C@@H](NC(=O)OC(C)(C)C)C(C)(C)C)C(=O)NS(=O)(=O)C1CC1
4. C=C[C@@H]1C[C@]1(NC(=O)[C@@H]1C[C@@H](Oc2nc3cc(OC)ccc3nc2CC)CN1C(=O)[C@@H](NC(=O)OC(C)(C)C)C(C)(C)C)C(=O)NS(=O)(=O)C1(C)CC1
5. C=C[C@@H]1C[C@]1(NC(=O)[C@@H]1C[C@@H](Oc2nc3cc(OC)ccc3nc2C(C)C)CN1C(=O)[C@@H](NC(=O)OC1CCCC1)C(C)(C)C)C(=O)NS(=O)(=O)C1(C)CC1
6. C=C[C@@H]1C[C@]1(NC(=O)[C@@H]1C[C@@H](Oc2nc3cc(OC)ccc3nc2C(C)C)CN1C(=O)[C@@H](NC(=O)OC1CCCC1)C(C)(C)C)C(=O)NS(=O)(=O)C1CC1

1. 8.00
2. 8.28
3. 8.07
4. 7.85
5. 7.37
6. 7.26

---

# target desc: Hepatitis C virus serine protease, NS3/NS4A (Hepatitis C virus, UniProt A3EZI9+D2K2A8, D168A)
# assay method text: Inhibition of HCV genotype 1a NS3/4A protease D168A mutant expressed in Escherichia coli BL21(DE3) using Ac-DE-Dap(QXL 520)-EE-Abu-psi-[COO]AS-C(5-FAMsp)-NH2 as substrate preincubated for 1 hr followed by substrate addition
For each of the compounds below, state its pKi.
Answers are plain numbers, as −log10 of the molar value.

Answered cases to consult:
INSERT INTO results (smiles_structure, recorded_result) VALUES
  ('C=C[C@@H]1C[C@]1(NC(=O)[C@@H]1C[C@@H](Oc2nc3cc(OC)ccc3nc2C)CN1C(=O)[C@@H](NC(=O)OC1CCCC1)C(C)(C)C)C(=O)NS(=O)(=O)C1CC1', 6.84),
  ('C=C[C@@H]1C[C@]1(NC(=O)[C@@H]1C[C@@H](Oc2nc3cc(OC)ccc3nc2Cl)CN1C(=O)[C@@H](NC(=O)OC1CCCC1)C(C)(C)C)C(=O)NS(=O)(=O)C1(C)CC1', 7.29);

Proceeding to the next compound to report its pKi.
Quick one: pKi of `C=C[C@@H]1C[C@]1(NC(=O)[C@@H]1C[C@@H](Oc2nc3cc(OC)ccc3nc2C(F)(F)F)CN1C(=O)[C@@H](NC(=O)OC(C)(C)C)C(C)(C)C)C(=O)NS(=O)(=O)C1CC1` ?
6.14

---

# target desc: Hepatitis C virus serine protease, NS3/NS4A (Hepatitis C virus, UniProt A3EZI9+D2K2A8, R155K)
# assay method text: Inhibition of HCV genotype 1a NS3/4A protease R155K mutant expressed in Escherichia coli BL21(DE3) using Ac-DE-Dap(QXL 520)-EE-Abu-psi-[COO]AS-C(5-FAMsp)-NH2 as substrate preincubated for 1 hr followed by substrate addition
experimental readout: pKi
Give bare numbers, as −log10 of the molar value.

INSERT INTO measurements (smiles_structure, recorded_result) VALUES
  ('C=C[C@@H]1C[C@]1(NC(=O)[C@@H]1C[C@@H](Oc2nc3cc(OC)ccc3nc2C(C)C)CN1C(=O)[C@@H](NC(=O)OC(C)(C)C)C(C)(C)C)C(=O)NS(=O)(=O)C1CC1', 7.31);

Each compound below has a recorded value; state its pKi.
1. C=C[C@@H]1C[C@]1(NC(=O)[C@@H]1C[C@@H](Oc2nc3cc(OC)ccc3nc2C(F)(F)F)CN1C(=O)[C@@H](NC(=O)OC1CCCC1)C(C)(C)C)C(=O)NS(=O)(=O)C1(C)CC1
2. CCc1nc2ccc(OC)cc2nc1O[C@@H]1C[C@H]2C(=O)N[C@]3(C(=O)NS(=O)(=O)C4CC4)C[C@H]3/C=C\CCCCC[C@H](NC(=O)OC(C)(C)C)C(=O)N2C1
3. C=C[C@@H]1C[C@]1(NC(=O)[C@@H]1C[C@@H](Oc2nc3cc(OC)ccc3nc2Cl)CN1C(=O)[C@@H](NC(=O)OC(C)(C)C)C(C)(C)C)C(=O)NS(=O)(=O)C1(C)CC1
4. C=C[C@@H]1C[C@]1(NC(=O)[C@@H]1C[C@@H](Oc2nc3cc(OC)ccc3nc2C(C)C)CN1C(=O)[C@@H](NC(=O)OC(C)(C)C)C(C)(C)C)C(=O)NS(=O)(=O)C1(C)CC1
5. C=C[C@@H]1C[C@]1(NC(=O)[C@@H]1C[C@@H](Oc2nc3cc(OC)ccc3nc2CC)CN1C(=O)[C@@H](NC(=O)OC(C)(C)C)C(C)(C)C)C(=O)NS(=O)(=O)C1CC1
6. C=C[C@@H]1C[C@]1(NC(=O)[C@@H]1C[C@@H](Oc2nc3cc(OC)ccc3nc2C)CN1C(=O)[C@@H](NC(=O)OC(C)(C)C)C(C)(C)C)C(=O)NS(=O)(=O)C1(C)CC1
7. C=C[C@@H]1C[C@]1(NC(=O)[C@@H]1C[C@@H](Oc2nc3cc(OC)ccc3nc2C(F)(F)F)CN1C(=O)[C@@H](NC(=O)OC(C)(C)C)C(C)(C)C)C(=O)NS(=O)(=O)C1(C)CC1
8. C=C[C@@H]1C[C@]1(NC(=O)[C@@H]1C[C@@H](Oc2nc3cc(OC)ccc3nc2C)CN1C(=O)[C@@H](NC(=O)OC1CCCC1)C(C)(C)C)C(=O)NS(=O)(=O)C1CC1

1. 7.66
2. 8.51
3. 8.42
4. 7.57
5. 7.77
6. 7.85
7. 7.92
8. 8.02

Quick one: pKi of `C=C[C@@H]1C[C@]1(NC(=O)[C@@H]1C[C@@H](Oc2nc3cc(OC)ccc3nc2Cl)CN1C(=O)[C@@H](NC(=O)OC(C)(C)C)C(C)(C)C)C(=O)NS(=O)(=O)C1CC1` ?
8.66

---

For each of the molecules below, state its Ki.
# target desc: Hepatitis C virus serine protease, NS3/NS4A (Hepatitis C virus, UniProt A3EZI9+D2K2A8)
# assay method text: Inhibition of wild type HCV genotype 1a NS3/4A protease expressed in Escherichia coli BL21(DE3) using Ac-DE-Dap(QXL 520)-EE-Abu-psi-[COO]AS-C(5-FAMsp)-NH2 as substrate preincubated for 1 hr followed by substrate addition
Give bare numbers, in nM.

Answered cases to consult:
INSERT INTO results (smiles_structure, recorded_result) VALUES
  ('C=C[C@@H]1C[C@]1(NC(=O)[C@@H]1C[C@@H](Oc2nc3cc(OC)ccc3nc2CC)CN1C(=O)[C@@H](NC(=O)OC(C)(C)C)C(C)(C)C)C(=O)NS(=O)(=O)C1(C)CC1', 16),
  ('C=C[C@@H]1C[C@]1(NC(=O)[C@@H]1C[C@@H](Oc2nc3cc(OC)ccc3nc2C(C)C)CN1C(=O)[C@@H](NC(=O)OC(C)(C)C)C(C)(C)C)C(=O)NS(=O)(=O)C1(C)CC1', 29),
  ('C=C[C@@H]1C[C@]1(NC(=O)[C@@H]1C[C@@H](Oc2nc3cc(OC)ccc3nc2C(F)(F)F)CN1C(=O)[C@@H](NC(=O)OC(C)(C)C)C(C)(C)C)C(=O)NS(=O)(=O)C1CC1', 87),
  ('C=C[C@@H]1C[C@]1(NC(=O)[C@@H]1C[C@@H](Oc2nc3cc(OC)ccc3nc2CC)CN1C(=O)[C@@H](NC(=O)OC1CCCC1)C(C)(C)C)C(=O)NS(=O)(=O)C1(C)CC1', 6.9);

Proceeding to the next molecule to report its Ki.
Quick one: Ki of `C=C[C@@H]1C[C@]1(NC(=O)[C@@H]1C[C@@H](Oc2nc3cc(OC)ccc3nc2Cl)CN1C(=O)[C@@H](NC(=O)OC1CCCC1)C(C)(C)C)C(=O)NS(=O)(=O)C1CC1` ?
3.8
